Provenance of the data: a melting point compilation (Tetko et al.; mined from patent text by program, amines drawn as free bases though some values may be those of a salt)

READOUT NAME: melting point (°C)

>  <MOLECULE>
CCc1ccc(C(O)COc2ccc(C=O)cc2)nc1 (stereo not drawn)

>  <melting point (°C)>
80

$$$$

I. O=C(NCCN1CCC(O)(c2ccc(Cl)cc2)CC1)c1ccccc1Br
II. CCCCc1c(C(=O)c2ccc(O)cc2)sc2ccc([N+](=O)[O-])cc12
Challenge: Could you tell me which of I and II has the lower melting point reading? In your reply, give the label of the chosen option.
Response given: I

---

READOUT NAME: melting point

Challenge: Fill blank: measured melting point of the compound COc1cccc(CNC(=O)c2cc3ccccc3c(=O)[nH]2)c1 is ____.
Response given: 206 to 210 °C

Challenge: Query (compound): CS(=O)(=O)c1ccc(-c2nn(Cc3ccccc3)c(=O)cc2-c2ccccc2)cc1 ; field requested: melting point
Response given: 211 to 212 °C

Challenge: Given the entry Cn1ncnc1COc1nn2c(-c3ccccc3F)nncc2c1-c1cccc(C(F)(F)F)c1 , report its measured melting point.
Response given: 152 to 155 °C

Challenge: If you can, please state the reported melting point value of CCCc1nc(CC)c(C=O)n1Cc1ccc(-c2ccccc2-c2c(O)c(=O)c2=O)cc1 .
Response given: 241 to 245 °C

---

Recorded melting point for the following molecules

>  <SMI>
CC(C)(C)c1ccc(Sc2cccc3c2C(=O)c2c(Sc4ccc(C(C)(C)C)cc4)ccc(Sc4ccc(C(C)(C)C)cc4)c2C3=O)cc1

>  <READOUT NAME>
melting point

>  <RESULT>
228 to 229 °C

$$$$
>  <SMI>
O=C(O)C[C@H](NC(=O)/C=C/C(=O)c1ccccc1)C(=O)O

>  <READOUT NAME>
melting point

>  <RESULT>
154 to 156 °C

$$$$

Challenge: Could you share which melting point value was measured for CCC(=Nc1ccc2c(c1)C(=O)c1ccc(N=C(CC)N3CCCCC3)cc1C2=O)N1CCCCC1 ?
Response given: 183 to 185 °C

Challenge: Quick one: melting point of NC(=O)CCSSCCC(N)=O ?
Response given: 100 to 101 °C

---

Documented melting point across a set of molecules

// known answers, use as guide
>  <MOLECULE>
Cc1oc2c(NC(=O)c3c(Cl)ccc(CO)c3Cl)cccc2c1C

>  <RESULT>
258 to 261 °C

$$$$
>  <MOLECULE>
Cc1nn(-c2ccc(C(F)(F)F)cn2)cc1CO

>  <RESULT>
157 to 158 °C

$$$$
>  <MOLECULE>
CCCCCCCCN1N=C(C)CC1=O

>  <RESULT>
59 °C

$$$$
>  <MOLECULE>
Cc1cc(-c2oncc2CCCO)ccc1Cl

>  <RESULT>
50 to 51 °C

$$$$
>  <MOLECULE>
CC(C)c1cccc(C(C)C)c1NC(=O)C(Cc1ccccc1)NCc1ccccc1 (stereo unspecified)

>  <RESULT>
120 to 124 °C

$$$$

Could you now look at the following molecule, please?
Challenge: Can you share its melting point? I mean this molecule: COc1ccc(N)c2c1oc1ccccc12
Response given: 167 to 169 °C
